Experimental Protocol: in vivo
Test Conditions: mouse, plasma, subcutaneous
Readout Name: concentration at 40 min (µM)
Response body: numeric value in µM, unit text excluded.

(Q) Determine from records and report concentration at 40 min for "NCCCCN"
(A) 16

====

Experimental Protocol: in vivo
Test Conditions: mouse, plasma, sc
Readout Name: concentration at 20 min (µM)
Response body: numeric value in µM, unit text excluded.

(Q) Determine from records and report concentration at 20 min for "NCCCCN"
(A) 42
